biological target: T1, Recombinant Human TNF-α/TNFSF1A (human, UniProt P01375 77-233); assay: SPR (Biacore), antibody captured, TNF-α in solution
T1 construct: Bought reagent (R&D Systems 210-TA); also called hTNF-α; huTNF-α
T1 sequence (P01375 77-233 limits assumed): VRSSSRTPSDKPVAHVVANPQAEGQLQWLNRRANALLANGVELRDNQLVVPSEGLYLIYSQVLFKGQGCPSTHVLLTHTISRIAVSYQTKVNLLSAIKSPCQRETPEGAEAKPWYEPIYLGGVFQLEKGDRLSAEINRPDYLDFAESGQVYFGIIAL
In this section, each of the binders is paired with its reported Kd.
Result type: Kd (nM)

Binder	Result type	Measure unit	Value measured
AB258 (antibody, V domains shown, also called hMAK195VH.2a / hMAK195VL.2) VH: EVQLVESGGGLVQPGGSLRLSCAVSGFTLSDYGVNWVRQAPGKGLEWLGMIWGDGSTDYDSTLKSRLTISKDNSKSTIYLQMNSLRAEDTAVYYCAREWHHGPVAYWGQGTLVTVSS VL: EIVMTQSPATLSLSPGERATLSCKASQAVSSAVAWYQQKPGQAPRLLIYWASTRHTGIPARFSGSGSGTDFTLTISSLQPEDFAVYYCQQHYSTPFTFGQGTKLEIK	Kd	nM	0.0816
AB242 (antibody, V domains shown, also called hMAK195VH.1 / hMAK195VL.2) VH: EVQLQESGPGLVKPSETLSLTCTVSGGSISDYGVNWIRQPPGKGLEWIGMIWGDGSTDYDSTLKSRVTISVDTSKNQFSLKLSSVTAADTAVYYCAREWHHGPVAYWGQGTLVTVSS VL: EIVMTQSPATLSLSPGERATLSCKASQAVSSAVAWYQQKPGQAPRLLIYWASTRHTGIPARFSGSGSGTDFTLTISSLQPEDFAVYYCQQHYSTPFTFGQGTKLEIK	Kd	nM	0.796
